molecular target: HDAC2 (Homo sapiens, UniProt Q92769); assay: NanoBRET target engagement assay (HEK293T); format: cell-based; parameters: BRD4 bromodomains and full-length HDACs were obtained as plasmids cloned in-frame with a terminal NanoLuc fusion; host or cells: HEK293T; settings: intact cells
Sequence (Q92769 whole entry, the tested form may be a part): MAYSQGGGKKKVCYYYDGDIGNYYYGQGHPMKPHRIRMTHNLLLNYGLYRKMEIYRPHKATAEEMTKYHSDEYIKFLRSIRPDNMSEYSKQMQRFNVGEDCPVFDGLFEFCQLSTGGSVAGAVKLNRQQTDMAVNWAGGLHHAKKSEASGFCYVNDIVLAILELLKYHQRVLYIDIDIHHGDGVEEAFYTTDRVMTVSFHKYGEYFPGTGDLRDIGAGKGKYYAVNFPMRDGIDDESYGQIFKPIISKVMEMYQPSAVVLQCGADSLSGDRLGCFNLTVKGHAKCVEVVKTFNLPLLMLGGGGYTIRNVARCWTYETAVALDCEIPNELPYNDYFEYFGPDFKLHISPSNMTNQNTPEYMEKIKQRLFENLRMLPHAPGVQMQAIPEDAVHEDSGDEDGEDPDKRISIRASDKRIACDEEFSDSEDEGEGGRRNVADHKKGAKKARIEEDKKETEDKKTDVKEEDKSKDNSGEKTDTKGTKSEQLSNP
Endpoint: EC50 (nM)
Report only the number, with the unit nM understood.

Some entries whose results are on file:
Cn1cc(-c2ccc(C(=O)Nc3ccc(F)cc3N)nc2)c2cc[nH]c2c1=O [NB507] | 14200
Cn1cc(-c2ccc(C(=O)Nc3ccccc3N)nc2)c2cc[nH]c2c1=O [NB500] | 2500

The record that follows has no EC50 shown yet.
Req: For the compound shown here, Cn1cc(-c2ccc(C(=O)Nc3cc(-c4ccccc4)ccc3N)cc2)c2cc[nH]c2c1=O [NB503] , give the reported EC50.
Resp: 360
